Observed IC50 for Acetylcholinesterase (Electrophorus electricus, UniProt O42275), reported per entry below.

| Entry smiles | IC50, µM |
| --- | --- |
| C#CCN(CCCCN1C(=O)c2ccccc2C1=O)Cc1ccccc1OC | 3.4 |
| C#CCN(CCCCCN1C(=O)c2ccccc2C1=O)Cc1ccccc1OC | 9.6 |
| CCN(CCCCN1C(=O)c2ccccc2C1=O)Cc1ccccc1 | 0.43 |
| CCN(CCCN1C(=O)c2ccccc2C1=O)Cc1ccccc1OC | 0.9 |
| CC(C)N1CCN(CCCCN2C(=O)c3ccccc3C2=O)CC1 | 5.3 |
| C#CCN(CCCCCN1C(=O)c2ccccc2C1=O)Cc1ccccc1 | 3.4 |
| CN(CCCCCCN1C(=O)c2ccccc2C1=O)Cc1ccccc1 | 2.1 |
| CCN(CCCCCCN1C(=O)c2ccccc2C1=O)Cc1ccccc1OC | 0.38 |
| C#CCN(CCCCCCN1C(=O)c2ccccc2C1=O)Cc1ccccc1OC | 4.9 |
| COc1ccccc1CN(C)CCN1C(=O)c2ccccc2C1=O | 6.2 |
